Measured values drawn from PubChem BioAssay AID1963852 for this set.

# Tested on: 282377-053-R-J1-PDC complex spheroid viability
# experiment: Anticancer human tumor 282377-053-R-J1-PDC patient-derived colon adenocarcinoma cell line growth inhibition [POLQ]
# setup.conditions: second compound 3.16 µM; first compound 0.316 µM; stronger effect = lower value
Doc: threshold 90% (exclusive). Items with viability, T/C beneath it return True; others return False.

molecule	category
COc1cccc(OCCCN)c1-c1cc(Nc2cnc(C#N)cn2)n[nH]1 + Cc1cccc(N(C)C(=O)C2C(O)CCN2c2nc(C)cc(C(F)(F)F)c2C#N)c1	True
CC(C)n1c(=O)n(C)c2cnc3cc(F)c(-c4ccc(OCCCN5CCCCC5)nc4)cc3c21 + Cc1cccc(N(C)C(=O)C2C(O)CCN2c2nc(C)cc(C(F)(F)F)c2C#N)c1	False
Nc1ccn(C2OC(CO)C(O)C2(F)F)c(=O)n1 (stereo unspecified) + Cc1cccc(N(C)C(=O)C2C(O)CCN2c2nc(C)cc(C(F)(F)F)c2C#N)c1	True
O=c1[nH]cc(F)c(=O)[nH]1 + Nc1ccc(C#CCN(C(=O)Cc2ncc(C(F)(F)F)cc2C(F)(F)F)c2ccc(F)cc2)nn1	False
CC1COCCN1c1cc(-c2ccnn2C)c2ccnc(-c3ccn[nH]3)c2n1 (stereo unspecified) + COC1C(OC(N)=O)C(O)C(Oc2ccc3c(O)c(NC(=O)c4ccc(O)c(CC=C(C)C)c4)c(=O)oc3c2C)OC1(C)C	True

---

# maps each entry to its pIC50
# Tested on: 282377-053-R-J1-PDC complex spheroid viability
# experiment: Anticancer human tumor 282377-053-R-J1-PDC cell line growth inhibition [POLQ];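 also: spheroids exposed to compounds for seven days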
# setup.conditions: curve of first compound; second compound 0.1 µM
# Protocol: Multicellular complex tumor spheroid response to Polymerase (POL) inhibitors (novobiocin, ART-558, RP6685) in combination with a variety of drugs and investigational agents in selected tumor cell lines The POL inhibitors (novobiocin, ART-558, and RP6685) were evaluated both individually and in combination with standard of care and investigational anticancer small molecules within a complex spheroid model of solid tumors. . […]
pIC50: −log10 of the molar value.
assay.readout: pIC50

compound	assay.result
CC(C)n1c(=O)n(C)c2cnc3cc(F)c(-c4ccc(OCCCN5CCCCC5)nc4)cc3c21 + Nc1ccc(C#CCN(C(=O)Cc2ncc(C(F)(F)F)cc2C(F)(F)F)c2ccc(F)cc2)nn1	< 5.00
CC1COCCN1c1cc(C2(S(C)(=N)=O)CC2)nc(-c2ccnc3[nH]ccc23)n1 (stereo not drawn) + COC1C(OC(N)=O)C(O)C(Oc2ccc3c(O)c(NC(=O)c4ccc(O)c(CC=C(C)C)c4)c(=O)oc3c2C)OC1(C)C	5.26
COc1cc2cc(C(=O)CCC(=O)O)sc2cc1OC + Cc1cccc(N(C)C(=O)C2C(O)CCN2c2nc(C)cc(C(F)(F)F)c2C#N)c1	< 5.00

---

# Tested on: 282377-053-R-J1-PDC complex spheroid viability
# experiment: Anticancer human tumor 282377-053-R-J1-PDC cell line growth inhibition [POLQ];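 also: spheroids exposed to compounds for seven days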;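 as to viability, T/C: 100% = DMSO vehicle control viability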
# setup.conditions: second compound 1 µM; first compound 1 µM; stronger effect = lower value
# Description: Multicellular complex tumor spheroid response to Polymerase (POL) inhibitors (novobiocin, ART-558, RP6685) in combination with a variety of drugs and investigational agents in selected tumor cell lines The POL inhibitors (novobiocin, ART-558, and RP6685) were evaluated both individually and in combination with standard of care and investigational anticancer small molecules within a complex spheroid model of solid tumors. . […]
Doc: threshold 80% (exclusive). Items with viability, T/C beneath it return yes (1); others return no (0).

compound	category
CC1COCCN1c1cc(-c2ccnn2C)c2ccnc(-c3ccn[nH]3)c2n1 (stereo unspecified) + Cc1cccc(N(C)C(=O)C2C(O)CCN2c2nc(C)cc(C(F)(F)F)c2C#N)c1	yes (1)
CC1COCCN1c1cc(C2(S(C)(=N)=O)CC2)nc(-c2ccnc3[nH]ccc23)n1 (stereo unspecified) + Cc1cccc(N(C)C(=O)C2C(O)CCN2c2nc(C)cc(C(F)(F)F)c2C#N)c1	no (0)
CCc1c2c(nc3ccc(O)cc13)-c1cc3c(c(=O)n1C2)COC(=O)[C@]3(O)CC + Nc1ccc(C#CCN(C(=O)Cc2ncc(C(F)(F)F)cc2C(F)(F)F)c2ccc(F)cc2)nn1	yes (1)
CNCc1ccc(-c2[nH]c3cc(F)cc4c3c2CCNC4=O)cc1 + Nc1ccc(C#CCN(C(=O)Cc2ncc(C(F)(F)F)cc2C(F)(F)F)c2ccc(F)cc2)nn1	no (0)
COc1ccc([C@@H](O)c2cc(-c3ncnc4cc(N5CCOCC5)ccc34)c(F)cc2Cl)nn1 + Cc1cccc(N(C)C(=O)C2C(O)CCN2c2nc(C)cc(C(F)(F)F)c2C#N)c1	no (0)
CCc1cc2c(N3CCc4c(cc(Cn5ccnc5)cc4-c4cn(C)nc4C(F)(F)F)C3=O)cc(C)nc2c(OC)n1 + Nc1ccc(C#CCN(C(=O)Cc2ncc(C(F)(F)F)cc2C(F)(F)F)c2ccc(F)cc2)nn1	no (0)
CC1COCCN1c1cc(-c2ccnn2C)c2ccnc(-c3ccn[nH]3)c2n1 (stereo unspecified) + Nc1ccc(C#CCN(C(=O)Cc2ncc(C(F)(F)F)cc2C(F)(F)F)c2ccc(F)cc2)nn1	yes (1)
C=CC(=O)N1CCN(c2nc(=O)n(-c3c(C)ccnc3C(C)C)c3nc(-c4c(O)cccc4F)c(F)cc23)C(C)C1 (stereo unspecified) + COC1C(OC(N)=O)C(O)C(Oc2ccc3c(O)c(NC(=O)c4ccc(O)c(CC=C(C)C)c4)c(=O)oc3c2C)OC1(C)C	no (0)
C=CCn1c(=O)c2cnc(Nc3ccc(N4CCN(C)CC4)cc3)nc2n1-c1cccc(C(C)(C)O)n1 + COC1C(OC(N)=O)C(O)C(Oc2ccc3c(O)c(NC(=O)c4ccc(O)c(CC=C(C)C)c4)c(=O)oc3c2C)OC1(C)C	yes (1)
CC1COCCN1c1cc(-c2ccnn2C)c2ccnc(-c3ccn[nH]3)c2n1 (stereo unspecified) + COC1C(OC(N)=O)C(O)C(Oc2ccc3c(O)c(NC(=O)c4ccc(O)c(CC=C(C)C)c4)c(=O)oc3c2C)OC1(C)C	yes (1)
CC1COCCN1c1cc(C2(S(C)(=N)=O)CC2)nc(-c2ccnc3[nH]ccc23)n1 (stereo unspecified) + Nc1ccc(C#CCN(C(=O)Cc2ncc(C(F)(F)F)cc2C(F)(F)F)c2ccc(F)cc2)nn1	no (0)
